target-or-system: UniProt P56817
procedure-details: BACE Enzyme Potency (Table 12)
Format: biochemical
pIC50: −log10 of the molar value.
measured-quantity: pIC50

Can you look up the measured pIC50 of COc1ccc(-c2csc(Nc3ccc(N(C)C)cc3)n2)c(OC)c1 for me?
5.30 to 5.96

----------
target-or-system: BACE Enzyme (Homo sapiens)
Sequence (P56817 46-501, species assumed): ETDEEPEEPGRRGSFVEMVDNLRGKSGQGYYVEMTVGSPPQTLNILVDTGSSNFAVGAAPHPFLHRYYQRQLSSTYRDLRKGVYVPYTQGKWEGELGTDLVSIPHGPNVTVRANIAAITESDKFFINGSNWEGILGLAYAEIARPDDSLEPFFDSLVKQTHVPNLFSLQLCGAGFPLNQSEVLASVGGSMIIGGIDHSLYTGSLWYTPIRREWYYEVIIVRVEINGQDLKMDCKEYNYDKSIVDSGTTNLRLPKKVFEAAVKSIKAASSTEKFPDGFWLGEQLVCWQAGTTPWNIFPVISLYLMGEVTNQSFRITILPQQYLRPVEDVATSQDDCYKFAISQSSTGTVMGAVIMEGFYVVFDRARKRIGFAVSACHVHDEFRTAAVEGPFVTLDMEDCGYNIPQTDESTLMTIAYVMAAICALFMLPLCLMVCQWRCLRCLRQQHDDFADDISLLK
procedure-details: BACE Enzyme Potency (Table 12)
Type: biochemical
test-settings: Table 12; class symbols; read-out: BACE Enzyme Potency
measured-quantity: IC50

Can you look up the measured IC50 of CN1CCN(c2ccc(-c3csc(Nc4ccc(N(C)C)cc4)n3)cc2)CC1 for me?
0.2 to 1 µM

Can you look up the measured IC50 of CN1CCN(c2ccc(-c3csc(Nc4ccc5[nH]ncc5c4)n3)cc2)CC1 for me?
1.1 to 5 µM

Can you look up the measured IC50 of CN1CCN(c2ccc(-c3csc(Nc4ccc5c(cnn5C)c4)n3)cc2)CC1 for me?
1.1 to 5 µM

Can you look up the measured IC50 of CN1CCN(c2ccc(-c3csc(Nc4ccc(Oc5ccccc5)cc4)n3)cc2)CC1 for me?
< 0.2 µM

Can you look up the measured IC50 of c1cc(Nc2nc(-c3ccc4c(c3)OCO4)cs2)c2cn[nH]c2c1 for me?
0.2 to 1 µM

Can you look up the measured IC50 of COc1cc(Nc2nc(-c3ccc(N4CCN(C)CC4)cc3)cs2)cc(OC)c1OC for me?
0.2 to 1 µM
